These measurements were taken from patent US20260274981A1.

SYSTEM: T1, recombinant human TfR (2474-TR, R&D Systems), biotinylated (human, UniProt P02786 89-760, biotinylated with EZ-Link NHS-PEG4-Biotinylation Kit)
T1 construct: Bought protein; also called immobilized recombinant human TfR; biotinylated human TfR
T1 sequence (P02786 89-760 limits assumed): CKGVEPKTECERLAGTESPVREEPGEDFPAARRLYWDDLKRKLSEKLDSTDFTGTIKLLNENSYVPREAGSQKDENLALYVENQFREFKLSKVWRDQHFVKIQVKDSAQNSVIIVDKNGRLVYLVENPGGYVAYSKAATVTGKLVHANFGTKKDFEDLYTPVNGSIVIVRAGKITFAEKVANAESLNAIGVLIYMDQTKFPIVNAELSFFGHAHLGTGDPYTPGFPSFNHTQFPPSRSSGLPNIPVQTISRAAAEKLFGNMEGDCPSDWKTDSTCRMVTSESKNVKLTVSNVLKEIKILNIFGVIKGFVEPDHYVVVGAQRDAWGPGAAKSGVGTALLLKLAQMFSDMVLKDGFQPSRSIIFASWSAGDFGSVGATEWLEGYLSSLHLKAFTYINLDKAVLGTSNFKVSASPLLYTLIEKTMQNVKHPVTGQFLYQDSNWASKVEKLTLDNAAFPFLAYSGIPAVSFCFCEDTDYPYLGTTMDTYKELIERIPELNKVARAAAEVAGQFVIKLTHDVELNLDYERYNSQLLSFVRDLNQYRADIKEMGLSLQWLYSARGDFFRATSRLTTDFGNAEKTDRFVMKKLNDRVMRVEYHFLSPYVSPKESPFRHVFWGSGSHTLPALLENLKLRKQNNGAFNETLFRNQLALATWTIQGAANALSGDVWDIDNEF
ASSAY_REMARKS: SPR (Biacore), ratio of the off rates on human TfR at the two pH values; the printed number equals kd at pH 5.5 divided by kd at pH 7.4
READOUT_TYPE: off-rate ratio kd pH5.5/kd pH7.4

# annotated cases, reported off-rate ratio kd pH5.5/kd pH7.4 shown
BBB00718 (VHH, also called histidine mutant of BBB00515) VHH: EVQLVESGGGSVQPGGSLRLSCTASGRTFNYAMGWFRQAPGKNREFVATIDWKDGSSYYLDSVRGRFTIERDDAKNTVYLQMNSLRPEDAAVYTCAVGDGDYCHTYTCAAEVEYDYWGQGTLVTVSS; 2.21
BBB00695 (VHH, Histidine mutant) VHH: EVQLVESGGGSVQPGGSLRLSCTASGHTFNYAMGWFRQAPGKNREFVATIDWKDGSSYYLDSVRGRFTIERDDAKNTVYLQMNSLRPEDAAVYTCAVGDGDYCSTYTCAAEVEYDYWGQGTLVTVSS; 1.51
BBB00698 (VHH, also called histidine mutant of BBB00515) VHH: EVQLVESGGGSVQPGGSLRLSCTASGRTFHYAMGWFRQAPGKNREFVATIDWKDGSSYYLDSVRGRFTIERDDAKNTVYLQMNSLRPEDAAVYTCAVGDGDYCSTYTCAAEVEYDYWGQGTLVTVSS; 2.15
BBB00716 (VHH, Histidine mutant) VHH: EVQLVESGGGSVQPGGSLRLSCTASGRTFNYAMGWFRQAPGKNREFVATIDWKDGSSYYLDSVRGRFTIERDDAKNTVYLQMNSLRPEDAAVYTCAVGDGHYCSTYTCAAEVEYDYWGQGTLVTVSS; 1.7
BBB00708 (VHH, Histidine mutant) VHH: EVQLVESGGGSVQPGGSLRLSCTASGRTFNYAMGWFRQAPGKNREFVATIDWKHGSSYYLDSVRGRFTIERDDAKNTVYLQMNSLRPEDAAVYTCAVGDGDYCSTYTCAAEVEYDYWGQGTLVTVSS; 1.57

P. BBB00719 (VHH, Histidine mutant) VHH: EVQLVESGGGSVQPGGSLRLSCTASGRTFNYAMGWFRQAPGKNREFVATIDWKDGSSYYLDSVRGRFTIERDDAKNTVYLQMNSLRPEDAAVYTCAVGDGDYCSHYTCAAEVEYDYWGQGTLVTVSS
Q. BBB00704 (VHH, also called histidine mutant of BBB00515) VHH: EVQLVESGGGSVQPGGSLRLSCTASGRTFNYAMGWFRQAPGKNREFVATHDWKDGSSYYLDSVRGRFTIERDDAKNTVYLQMNSLRPEDAAVYTCAVGDGDYCSTYTCAAEVEYDYWGQGTLVTVSS
Query block: Decide: P or Q , by lowest recorded off-rate ratio kd pH5.5/kd pH7.4. Could you answer with the label of the item you picked?
Result block: P
(P: 1.55, Q: 2.55)
